tested-system: UniProt P0DTD1
Flag rule - IC50 less than 2000 nM flags Satisfied; the remaining entries get Not satisfied.

Example results:
>  <compound>
O=C(Cc1cccc(Cl)c1)Nc1cncc2c(Cl)cccc12

>  <label-value>
Not satisfied

$$$$
>  <compound>
O=C(Cc1cc(Cl)cc(Nc2ccncc2Br)c1)Nc1cncc2ccccc12

>  <label-value>
Not satisfied

$$$$
>  <compound>
Cc1cc2c(N3CCc4[nH]c5ccccc5c4C3)nccn2n1

>  <label-value>
Not satisfied

$$$$
>  <compound>
Cc1ccncc1NC(=O)Cc1cc(Cl)cc(C2COC2)c1

>  <label-value>
Not satisfied

$$$$

# TODO verify IC50 < 2000 nM strictly for this compound: C=CC(=O)N(c1ccc(C2(C)CC2)cc1)C(C(=O)Nc1cccc(CC)c1)c1cccnc1 (stereo not drawn)
Not satisfied

Also need "Cc1cc(C(F)(F)F)nc2c1c(N)nn2C(=O)Cc1cccc(Cl)c1" , thanks.
Not satisfied

Also need "CN(Cc1ccccc1Br)c1cc(Cl)cc(CC(=O)Nc2cncc3ccccc23)c1" , thanks.
Not satisfied

Also need "CC(C)c1cccc(C(C)C)c1Nc1cc(Cl)cc(CC(=O)Nc2cncc3ccccc23)c1" , thanks.
Satisfied

Also need N#CC1(CS(=O)(=O)N2Cc3ccc(Cl)cc3C3(CCN(c4cncc5ccc(F)cc45)C3=O)C2)CC1 (stereo not drawn) , thanks.
Satisfied

###

Reported IC50, SARS-CoV-2 Main Protease (SARS-CoV-2).
Express it in µM; write the number only.

Examples with their reported IC50 follow.
>  <compound>
O=C(Cn1nnc2ccccc21)N(Cc1ccccc1)c1ccc(N2CCOCC2)cc1

>  <endpoint-result>
19.8

$$$$
>  <compound>
CC(C)(C)c1ccc(N(C(=O)c2ccco2)C(C(=O)NCCc2cccc(F)c2)c2cncc3ccccc23)cc1 (stereo not given)

>  <endpoint-result>
0.403

$$$$

What measured IC50 goes with Cc1ccncc1NC(=O)Cc1cc(Cl)cc(NC2CCC(F)(F)C2O)c1 (stereo not given) ?
23

###

The following molecules are shown together with reported IC50 values.
tested-system: SARS-CoV-2 Main Protease (SARS-CoV-2)
Express it in µM; write the number only.

Examples with their reported IC50 follow.
>  <molecule>
N#CCC1(CS(=O)(=O)N2Cc3ccc(Cl)cc3C(C(=O)Nc3cncc4ccccc34)C2)CC1 (centres undefined)

>  <endpoint-result>
0.128

$$$$
>  <molecule>
CNC(=O)CN1CC2(CCN(c3cncc4ccccc34)C2=O)c2cc(Cl)ccc2S1(=O)=O (centres undefined)

>  <endpoint-result>
0.275

$$$$
>  <molecule>
O=C(Cc1cc(Cl)cc(NCc2cc(F)c(F)c(F)c2)c1)Nc1cncc2ccccc12

>  <endpoint-result>
3.4

$$$$
>  <molecule>
O=C(Cc1cccc(Cl)c1)Nc1cncc2cccc(F)c12

>  <endpoint-result>
1.31

$$$$

What measured IC50 goes with "O=C(Cc1cc(Cl)cc(OC(F)(F)F)c1)Nc1cncc2ccccc12" ?
1.55

###

tested-system: SARS-CoV-2 Main Protease (SARS-CoV-2)
The following molecules are shown together with reported IC50 values.
Express it in µM; write the number only.

Examples with their reported IC50 follow.
>  <molecule>
Cc1ccc(N(Cc2cccc(Cl)c2)C(=O)Cn2nnc3ccccc32)cc1

>  <IC50, µM>
2.33

$$$$
>  <molecule>
CC(=O)NC(C(=O)Nc1cncc2ccccc12)c1ccc(Cl)c(Cl)c1 (stereo not given)

>  <IC50, µM>
4.05

$$$$

What measured IC50 goes with O=C1CC(C(=O)N2CCN(c3cccc(Cl)c3)CC2)c2ccccc2N1 (stereo not given) ?
20.9
